Tested on: TK-10
Experiment summary: NCI tumour cell line growth inhibition, 48 h
Calls of active or inactive are those of the source. Rule as the data show it: active = GI50 up to about 1.1 µM and inactive = higher.
Measurement label: GI50

[
  {
    "Compound": "CC1(C(=O)O)CCC[C@@]2(C)C1CC[C@@]1(C)c3cocc3CCC21 (stereo not given in full)",
    "Readout value": "> 100 µM (inactive)"
  },
  {
    "Compound": "CCCCCCCCCCCCCCNC(=O)CCC(NC(=O)c1ccc(N(C)Cc2cnc3nc(N)nc(N)c3n2)cc1)C(=O)NCCCCCCCCCCCCCC (stereo not given)",
    "Readout value": "> 39.1 µM (inactive)"
  },
  {
    "Compound": "Cc1ccc(C(=O)C(C)N)cc1C (stereo not given)",
    "Readout value": "> 100 µM (inactive)"
  },
  {
    "Compound": "Cc1cc(C)n(-c2nsc3ccccc23)n1",
    "Readout value": "> 100 µM (inactive)"
  },
  {
    "Compound": "C(#C[C@@]12CCC[C@@H]1NCO2)c1ccc2c(c1)OCO2",
    "Readout value": "73.3 µM (inactive)"
  },
  {
    "Compound": "CCCCOCn1c(=O)[nH]c(=O)c2cc(Br)ccc21",
    "Readout value": "53.5 µM (inactive)"
  },
  {
    "Compound": "Cc1ccc(/N=N/c2c(C)nn(C(=O)CC(=O)Nc3ccc(Cl)cc3)c2C)cc1C",
    "Readout value": "49.2 µM (inactive)"
  },
  {
    "Compound": "COc1cc2c(c3oc(-c4ccc5c(c4)OCO5)c(O)c(=O)c13)CCC(C)(C)O2",
    "Readout value": "> 100 µM (inactive)"
  },
  {
    "Compound": "COc1cc2c(cc1OC)C1Cc3ccccc3CCN1CC2 (stereo not given)",
    "Readout value": "> 100 µM (inactive)"
  },
  {
    "Compound": "CCOc1ccccc1NC(=O)C(=O)C(C(=O)c1ccc2ccccc2c1)C1OC(=O)c2ccccc21 (stereo not given)",
    "Readout value": "24.4 µM (inactive)"
  }
]

All values here come from ChEMBL document CHEMBL1201862.
